# TARGET_DESC: HpMutS2-G338R (Helicobacter pylori 26695, UniProt O25338 1-762, G338R)
# TEST_METHOD_NOTES: EMSA; no nucleotide; EMSA: 0.16 nM DNA, buffer A (50 mM Tris pH 8.0, 50 mM NaCl, 1 mM DTT per Fig. S3 legend) with 0.1 ug/ul BSA, NaCl 110 mM, no divalent metal stated, 30 min on ice, 8% native PAGE at 4 C; nucleotides 1 mM; Hill-slope fit
# PARTICULARS: protein: recombinant; tags: C-terminal His6; chain copies: 4; label: 5'-32P
MEASURED_ENDPOINT: Kd (nM)
One number for each entry, in nM.

Query block: Given the binder ssDNA 63-mer (ODN4) (ssDNA) DNA: ATCGATAGTCGGATCCTCCAGACAGCTCCATGTAGCAAGGCACTGGTAGAATTCGGCAGCGTC , write its reported Kd.
Result block: 32.4
